Below, each of the compounds is paired with its reported DC50 value.
SUBJECT OF TEST: TYK2 (Homo sapiens, UniProt P29597)
Sequence (P29597 whole entry): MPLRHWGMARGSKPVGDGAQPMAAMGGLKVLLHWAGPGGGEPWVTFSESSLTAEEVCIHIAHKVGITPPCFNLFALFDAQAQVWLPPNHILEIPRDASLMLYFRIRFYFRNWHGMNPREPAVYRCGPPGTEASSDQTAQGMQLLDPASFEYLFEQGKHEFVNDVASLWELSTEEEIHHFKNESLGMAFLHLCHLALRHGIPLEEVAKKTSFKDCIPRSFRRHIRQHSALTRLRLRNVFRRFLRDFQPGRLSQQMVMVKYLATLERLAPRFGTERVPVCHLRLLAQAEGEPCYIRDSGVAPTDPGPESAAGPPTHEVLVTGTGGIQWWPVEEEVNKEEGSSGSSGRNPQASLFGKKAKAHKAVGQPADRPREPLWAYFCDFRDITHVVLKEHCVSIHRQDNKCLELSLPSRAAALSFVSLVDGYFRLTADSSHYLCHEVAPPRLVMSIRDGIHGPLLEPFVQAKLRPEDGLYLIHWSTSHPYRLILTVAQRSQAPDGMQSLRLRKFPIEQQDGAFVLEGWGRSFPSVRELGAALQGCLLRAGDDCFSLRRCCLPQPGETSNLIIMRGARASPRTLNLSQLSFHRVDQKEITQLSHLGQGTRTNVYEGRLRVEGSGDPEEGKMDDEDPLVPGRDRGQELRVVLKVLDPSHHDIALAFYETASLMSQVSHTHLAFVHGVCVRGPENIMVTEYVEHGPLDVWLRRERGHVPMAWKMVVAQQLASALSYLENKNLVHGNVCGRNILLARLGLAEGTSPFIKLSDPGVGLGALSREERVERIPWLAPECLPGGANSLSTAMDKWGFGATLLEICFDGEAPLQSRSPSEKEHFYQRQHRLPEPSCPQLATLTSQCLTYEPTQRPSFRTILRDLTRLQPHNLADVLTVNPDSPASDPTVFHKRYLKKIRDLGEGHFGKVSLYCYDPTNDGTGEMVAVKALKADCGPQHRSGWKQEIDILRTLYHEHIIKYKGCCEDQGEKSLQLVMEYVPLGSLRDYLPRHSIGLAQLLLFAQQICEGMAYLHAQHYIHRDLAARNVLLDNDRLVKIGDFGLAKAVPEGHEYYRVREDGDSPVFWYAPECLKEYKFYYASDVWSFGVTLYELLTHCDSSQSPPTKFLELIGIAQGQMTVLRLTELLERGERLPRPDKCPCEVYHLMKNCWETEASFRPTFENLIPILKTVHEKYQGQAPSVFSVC
TEST NAME: TYK2 degradation MSD assay in OCI-LY10 cells
Format: cell-based
Parameters: endogenous in cells; host or cells: EBV-B cells
TEST PARAMETERS: 4 to 24 hours incubation, read-out: TYK2 MSD DC50 rating in OCI-LY10
REPORTED METRIC: DC50

COMPOUND: CNc1cc(Nc2cccn(-c3ccc(C(=O)N(C)C4CCN(c5ccc(-c6ccc7c(c6)n(C)c(=O)n7C6CCC(=O)NC6=O)cc5)C4)cn3)c2=O)nn2c(C(=O)N[C@@H]3C[C@@H]3F)cnc12 (stereo partly drawn)
RECORDED VALUE: < 1 nM
--
COMPOUND: CNc1cc(Nc2cccc(CN3CCN(CCc4ccc5c(c4)n(C)c(=O)n5C4CCC(=O)NC4=O)CC3)c2)nn2c(C(=O)NC3CC3)cnc12 (stereo not drawn) [Example K613]
RECORDED VALUE: 1 to 10 nM
--
COMPOUND: CNc1cc(Nc2cccn(-c3cccc(C(=O)NCCCCCCc4cccc5c4n(C)c(=O)n5C4CCC(=O)NC4=O)c3)c2=O)nn2c(C(=O)N[C@@H]3C[C@@H]3F)cnc12 (stereo partly drawn)
RECORDED VALUE: > 100 nM
